Biological target: Ileal sodium/bile acid cotransporter (Homo sapiens, UniProt Q12908)
Test: In vitro inhibition of ASBT mediated uptake of [14C]taurocholate (5 uM) in baby hamster cells expressing human IBAT
measurementKind: IC50 (nM)

1. CCCCC1(CCCC)CS(=O)(=O)c2ccc(N(C)C)cc2[C@@H](c2ccc(OCCCCCN(CC)CC)cc2)[C@H]1O
2. CCCCC1(CCCC)CS(=O)(=O)c2ccc(N(C)C)cc2[C@@H](c2cccnc2)[C@H]1O (racemic)
3. CCCCC1(CCCC)CS(=O)(=O)c2ccc(N(C)C)cc2[C@@H](c2cccc(CS(=O)(=O)O)c2)[C@H]1O (racemic)
4. CCCCC1(CCCC)CS(=O)(=O)c2ccc(N(C)C)cc2[C@@H](c2ccc(C(C)(C)C)cc2)[C@H]1O (racemic)
5. CCCCC1(CCCC)CS(=O)(=O)c2ccc(N(C)C)cc2[C@@H](c2ccc(OCCCCCN(CC(=O)O)CC(=O)O)cc2)[C@H]1O
Query: Rank the items in ascending order with respect to IC50. The reply should contain the labels ordered as requested.
Response: 5, 3, 2, 1, 4

1. CCCCC1(CCCC)CS(=O)(=O)c2ccc(N(C)C)cc2[C@@H](c2ccccn2)[C@H]1O (racemic)
2. CCCCC1(CCCC)CS(=O)(=O)c2ccc(N(C)C)cc2[C@@H](c2cccs2)[C@H]1O (racemic)
Query: Hi team, can someone confirm which has the larger IC50: 1 or 2 ? Thanks. Label of pick, please.
Response: 2
(2: 30 nM, 1: 5 nM)

---

Target: Ileal sodium/bile acid cotransporter (Homo sapiens)
Sequence (Q12908 whole entry): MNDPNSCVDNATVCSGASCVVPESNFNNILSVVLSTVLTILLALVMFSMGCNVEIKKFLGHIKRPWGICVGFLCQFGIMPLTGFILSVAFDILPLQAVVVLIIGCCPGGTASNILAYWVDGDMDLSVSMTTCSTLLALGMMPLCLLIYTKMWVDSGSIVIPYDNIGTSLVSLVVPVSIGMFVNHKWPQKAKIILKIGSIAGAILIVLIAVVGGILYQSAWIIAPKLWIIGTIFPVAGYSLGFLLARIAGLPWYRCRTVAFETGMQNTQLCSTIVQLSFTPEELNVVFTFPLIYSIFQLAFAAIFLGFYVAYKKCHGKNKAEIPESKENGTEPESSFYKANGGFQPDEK
Test: In vitro inhibition of ASBT mediated uptake of [14C]taurocholate (5 uM) in baby hamster cells expressing human IBAT
pIC50: −log10 of the molar value.
measurementKind: pIC50

Sample records with pIC50:
[[record]]
compound = "CCCCC1(CCCC)CS(=O)(=O)c2ccc(N(C)C)cc2[C@@H](c2ccc(OCCOCC[N+](CC)(CC)CC)cc2)[C@H]1O"
valuereported = 8.24

[[record]]
compound = "CCCCC1(CCCC)CS(=O)(=O)c2ccc(N(C)C)cc2[C@@H](c2cccc(N)c2)[C@H]1O (racemic)"
valuereported = 8.70

[[record]]
compound = "CCCCC1(CCCC)CS(=O)(=O)c2ccc(N(C)C)cc2[C@@H](c2ccc(O)c(O)c2)[C@H]1O (racemic)"
valuereported = 8.02

[[record]]
compound = "CCCCC1(CCCC)CS(=O)(=O)c2ccc(N(C)C)cc2[C@@H](c2ccc(OCC[N+](C)(C)C)cc2)[C@H]1O"
valuereported = 6.59

[[record]]
compound = "CCCCC1(CCCC)CS(=O)(=O)c2ccc(N(C)C)cc2[C@@H](c2ccc(OCc3cc[n+](C)cc3)cc2)[C@H]1O"
valuereported = 9.12


I. CCCCC1(CCCC)CS(=O)(=O)c2ccc(N(C)C)cc2[C@@H](c2cccc(NCC(=O)NCC(=O)O)c2)[C@H]1O
II. CCCCC1(CCCC)CS(=O)(=O)c2ccc(N(C)C)cc2[C@@H](c2ccc(F)c(F)c2)[C@H]1O (racemic)
Query: I would appreciate it if you could say which entry, I or II , has the lower pIC50 value. Label of pick, please.
Response: II

Origin of measurements: ChEMBL document CHEMBL1140409
